These records show log10 of Kd for Glutamate carboxypeptidase 2 (Homo sapiens, UniProt Q04609).
Quantity measured: log10 of Kd (log10 of the value in nM)

CC(=O)NCCOCCOCCOCCC(=O)N(CCCOc1cc(C#N)cc(C#N)c1)CC(=O)N[C@@H](Cc1ccc2ccccc2c1)C(=O)NCCCC[C@H](NC(=O)N[C@@H](CCC(=O)O)C(=O)O)C(=O)O : -0.37
CC(=O)NCCOCCOCCOCCC(=O)NC[C@H]1CC[C@H](C(=O)N[C@@H](Cc2ccc3ccccc3c2)C(=O)NCCCC[C@H](NC(=O)N[C@@H](CC(=O)O)C(=O)O)C(=O)O)CC1 : 2.08
CC(=O)NCCOCCOCCOCCC(=O)N1C[C@H](NC(=O)CCCOc2cc(C#N)cc(C#N)c2)C[C@H]1C(=O)NCC(=O)N[C@@H](Cc1ccc2ccccc2c1)C(=O)NCCCC[C@H](NC(=O)N[C@@H](CCC(=O)O)C(=O)O)C(=O)O : 0.56
CC(=O)NCCOCCOCCOCCC(=O)N[C@@H](Cc1cccc(C(=O)O)c1)C(=O)NCC(=O)N[C@@H](Cc1ccc2ccccc2c1)C(=O)NCCCC[C@H](NC(=O)N[C@@H](CCC(=O)O)C(=O)O)C(=O)O : 0.02
CC(=O)NCCOCCOCCOCCC(=O)N1C[C@H](NC(=O)CCCOc2cc(C#N)cc(C#N)c2)C[C@H]1C(=O)N[C@@H](Cc1ccc2ccccc2c1)C(=O)NCCCC[C@H](NC(=O)N[C@@H](CCC(=O)O)C(=O)O)C(=O)O : 0.39
CC(=O)NCCOCCOCCOCCC(=O)N[C@@H]1C[C@@H](C(=O)NCC(=O)N[C@@H](Cc2ccc3ccccc3c2)C(=O)NCCCC[C@H](NC(=O)N[C@@H](CCC(=O)O)C(=O)O)C(=O)O)N(C(=O)CCCOc2cc(C#N)cc(C#N)c2)C1 : 0.00
CC(=O)NCCOCCOCCOCCC(=O)N[C@@H]1C[C@@H](C(=O)N[C@@H](Cc2ccc3ccccc3c2)C(=O)NCCCC[C@H](NC(=O)N[C@@H](CCC(=O)O)C(=O)O)C(=O)O)N(C(=O)COc2cc(C#N)cc(C#N)c2)C1 : 0.61
